Tested on: RPMI-8226
method: NCI tumour cell line growth inhibition, 48 h
Active and inactive are the calls of the source. No stated cut-off is given here; in the data, active = GI50 up to about 1.1 µM and inactive = higher.
assay_metric: GI50

Please review the following examples before continuing.
| compound | GI50 |
| --- | --- |
| CC1=NN(C(=O)CC(=O)Nc2ccccc2Cl)C(=O)C1/N=N\c1ccc(S(=O)(=O)c2ccc(/N=N/C3C(=O)N(C(=O)CC(=O)Nc4ccccc4Cl)N=C3C)cc2)cc1 (stereo not drawn) | > 100 µM (inactive) |
| O=C1c2ccccc2-c2nnc(-c3ccc(Cl)cc3)cc21 | > 10 µM (inactive) |

CCC[N+](C)(C)CCCNC(=O)c1c(O)c2ccccc2[nH]c1=O yielded GI50 of > 100 µM (inactive)

---

Tested on: Malme-3M
method: NCI tumour cell line growth inhibition, 48 h
Active and inactive are the calls of the source. No stated cut-off is given here; in the data, active = GI50 up to about 1.1 µM and inactive = higher.
assay_metric: GI50

Please review the following examples before continuing.
| compound | tested_system | GI50 |
| --- | --- | --- |
| O=C1C=C(Nc2ccc(Cl)cc2C(=O)c2ccccc2)c2ccccc2C1=O | Malme-3M | > 100 µM (inactive) |
| Cc1ccc([N+](=O)[O-])cc1S(=O)(=O)Nc1ccc(C2=NOC(c3ccccc3)C2)cc1 (centres undefined) | Malme-3M | 8.63 µM (inactive) |
| Cn1/c(=N\N=C2\C=C3CCCCC3(C)CC2)sc2ccccc21 (centres undefined) | Malme-3M | > 100 µM (inactive) |

CC1CN1C(=O)NCCCCCCNC(=O)N1CC1C (centres undefined) yielded GI50 of > 100 µM (inactive)

CCOC(=O)C1C=C2O[C@@H]3OC4(CCCCC4)O[C@@H]3C2[C@H]2C(=O)C=CC(=O)[C@@]12C(=O)OC (some centres undefined) yielded GI50 of 17.2 µM (inactive)

CC12CCCC(C#N)(C1)OC2=O (centres undefined) yielded GI50 of > 100 µM (inactive)

CCN(C(=O)N[C@@H](C)C(=O)N[C@@H](Cc1ccccc1)C(=O)OC)c1ccccc1 yielded GI50 of 34.4 µM (inactive)

CO[C@@H]1C[C@H]2[C@@H]3CC[C@H]([C@H](C)CO)[C@@]3(C)CC[C@@H]2[C@@]2(C)CC[C@H]3C[C@]312 yielded GI50 of > 100 µM (inactive)

COc1ccc(N/N=C/C2=CC(C)(C)C(C#N)(C#N)C(O)=C2C#N)cc1 yielded GI50 of 29.4 µM (inactive)

Oc1c(O)c(Cc2ccccc2)c(Cc2ccccc2)c(Cc2ccccc2)c1Cc1ccccc1 yielded GI50 of > 10 µM (inactive)

CN1CCCC2[C@@H]3CCC4c5nonc5CC[C@]4(C)C3CC[C@@]21C (some centres undefined) yielded GI50 of > 100 µM (inactive)

Cc1c2c(OCC(O)CN3CCN(c4ccccc4)CC3)nn(C)c(=O)c2c(C)n1-c1ccccc1 (centres undefined) yielded GI50 of 21.8 µM (inactive)

---

Test system: NCI-H23
method: NCI tumour cell line growth inhibition, 48 h
Active and inactive are the calls of the source. No stated cut-off is given here; in the data, active = GI50 up to about 1.1 µM and inactive = higher.
Respond using exactly one of the listed classes: true for active, false for inactive

Answered cases to consult:
| compound | tested_system | category_label |
| --- | --- | --- |
| CC(=O)OCc1nc(C#N)c(N)o1 | NCI-H23 | false |
| COc1cccc(C2=NC(C(C)C)CO2)c1 (centres undefined) | NCI-H23 | false |
| CC1(C)CC(=O)C(=CNC(=O)c2ccncc2)C(=O)C1 | NCI-H23 | false |
| Cc1ccc(S(=O)(=O)N(CCN)c2cc3c4c(c2)Oc2cccc5c2C4c2c(cccc2O3)O5)cc1 | NCI-H23 | false |
| O=C(C1OC1c1ccc([N+](=O)[O-])cc1)C12CC3CC(CC(C3)C1)C2 (centres undefined) | NCI-H23 | false |

Query: // param item: NNC(=O)c1c(SCc2ccccc2)nc2c3ccccc3ccn12 ; yields the recorded call
Reply: false

Query: // param item: O=C(CCC(=O)Nc1cccc(Cl)c1)CC(=O)c1ccc(Cl)cc1 ; yields the recorded call
Reply: false

Query: // param item: O=C1c2scnc2-c2nccc3c2c1nc1ccccc13 ; yields the recorded call
Reply: true

Query: // param item: O=[N+]([O-])c1ccc(/C=C/c2ccc(/N=N/c3ccc(/C=C/c4ccc([N+](=O)[O-])cc4S(=O)(=O)O)c(S(=O)(=O)O)c3)cc2S(=O)(=O)O)c(S(=O)(=O)O)c1 ; yields the recorded call
Reply: false

Query: // param item: CC(=O)NNc1nc(C)c(C(=O)/C=C/c2cccc([N+](=O)[O-])c2)s1 ; yields the recorded call
Reply: false

Query: // param item: CC(=O)Oc1c(OC(C)C)cc(=O)n2ccsc12 ; yields the recorded call
Reply: false

Query: // param item: CN(C)CCNc1ccc(CO)c2sc3ccc(O)cc3c(=O)c12 ; yields the recorded call
Reply: true

Query: // param item: NC(CCCCNC(=O)C(Cc1ccccc1)NC(=O)OCc1ccccc1)C(=O)NC(CCCCNC(=O)C(Cc1ccccc1)NC(=O)OCc1ccccc1)C(=O)NC(CCCCNC(=O)C(Cc1ccccc1)NC(=O)OCc1ccccc1)C(=O)NC(CCCCNC(=O)C(Cc1ccccc1)NC(=O)OCc1ccccc1)C(=O)NC(CCCCNC(=O)C(Cc1ccccc1)NC(=O)OCc1ccccc1)C(=O)NC(CCCCNC(=O)C(Cc1ccccc1)NC(=O)OCc1ccccc1)C(=O)O (centres undefined) ; yields the recorded call
Reply: false

Numbers sourced from ChEMBL document CHEMBL1201862.
